We begin with a simple list: items and their reported % (rate of writhing inhibition).
- Test system: mice
- assay-notes: Analgesic activity, acetic acid writhing
- Type: in vivo
- experimental-setup: 50 mg/kg transdermally, 60 minutes before acetic acid
Just so you know, I need the unit written after the number.

In the examples that follow, each entry is paired with its recorded % (rate of writhing inhibition).
molecule-smiles: CN(C)CCCC(=O)OC1=C(C(=O)Nc2ccccn2)N(C)S(=O)(=O)c2cc(Cl)sc21.Cl
% (rate of writhing inhibition): 53%

molecule-smiles: Cc1cnc(NC(=O)C2=C(OC(=O)CCCN(C)C)c3ccccc3S(=O)(=O)N2C)s1.Cl
% (rate of writhing inhibition): 48%

molecule-smiles: CN(C)CCCC(=O)OC1=C(C(=O)Nc2ccccn2)N(C)S(=O)(=O)c2ccsc21.Cl
% (rate of writhing inhibition): 53%

Input line: Need % (rate of writhing inhibition) of "CN(C)CCCC(=O)OC1=C(C(=O)Nc2ccccn2)N(C)S(=O)(=O)c2ccccc21.Cl" , thanks.
Output line: 55%
